# Assayed system: REFACTO® (recombinant factor VIII-like polypeptide consisting of amino acids 1-743 and 1638 through 2332 of human factor VIII) (human) (UniProt P00451)
# Sequence (P00451 20-762, chain 1 of 2): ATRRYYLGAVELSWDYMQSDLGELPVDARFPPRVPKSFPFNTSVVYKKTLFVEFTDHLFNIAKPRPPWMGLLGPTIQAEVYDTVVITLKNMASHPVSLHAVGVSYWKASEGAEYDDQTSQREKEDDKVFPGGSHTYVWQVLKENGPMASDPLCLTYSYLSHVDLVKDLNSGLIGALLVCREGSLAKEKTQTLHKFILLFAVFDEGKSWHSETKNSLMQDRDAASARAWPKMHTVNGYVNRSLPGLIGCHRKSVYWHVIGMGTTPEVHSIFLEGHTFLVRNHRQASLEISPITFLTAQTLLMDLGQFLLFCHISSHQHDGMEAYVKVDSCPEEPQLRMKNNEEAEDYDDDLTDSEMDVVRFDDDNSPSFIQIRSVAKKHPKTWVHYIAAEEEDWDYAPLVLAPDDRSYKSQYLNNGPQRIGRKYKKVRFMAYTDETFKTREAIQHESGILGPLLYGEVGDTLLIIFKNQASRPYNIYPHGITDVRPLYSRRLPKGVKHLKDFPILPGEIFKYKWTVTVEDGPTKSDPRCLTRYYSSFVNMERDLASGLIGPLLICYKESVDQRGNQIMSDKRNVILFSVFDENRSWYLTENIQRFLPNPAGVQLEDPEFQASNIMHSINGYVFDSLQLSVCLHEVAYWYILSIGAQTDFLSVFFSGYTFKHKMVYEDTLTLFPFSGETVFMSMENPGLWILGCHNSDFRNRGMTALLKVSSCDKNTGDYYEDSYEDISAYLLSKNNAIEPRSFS
# Sequence (P00451 1657-2351, chain 2 of 2): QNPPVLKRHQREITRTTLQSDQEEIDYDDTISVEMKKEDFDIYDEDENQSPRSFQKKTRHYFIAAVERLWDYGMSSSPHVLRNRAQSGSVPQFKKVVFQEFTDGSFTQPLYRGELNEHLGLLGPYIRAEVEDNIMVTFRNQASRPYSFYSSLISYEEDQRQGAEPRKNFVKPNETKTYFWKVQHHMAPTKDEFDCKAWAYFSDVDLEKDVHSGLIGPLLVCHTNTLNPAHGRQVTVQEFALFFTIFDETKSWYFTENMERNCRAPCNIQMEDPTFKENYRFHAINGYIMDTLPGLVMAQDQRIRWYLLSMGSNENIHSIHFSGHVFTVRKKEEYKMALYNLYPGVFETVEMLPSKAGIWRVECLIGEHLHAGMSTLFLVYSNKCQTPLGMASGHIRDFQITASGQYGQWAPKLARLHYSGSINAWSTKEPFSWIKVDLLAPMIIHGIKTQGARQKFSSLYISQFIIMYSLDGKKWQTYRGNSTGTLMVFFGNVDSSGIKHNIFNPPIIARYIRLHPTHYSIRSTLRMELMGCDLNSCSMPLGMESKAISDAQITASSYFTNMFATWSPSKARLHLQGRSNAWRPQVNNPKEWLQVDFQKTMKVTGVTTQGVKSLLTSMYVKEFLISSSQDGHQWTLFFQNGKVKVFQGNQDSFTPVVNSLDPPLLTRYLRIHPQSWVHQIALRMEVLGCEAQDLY
# Assay name: affinity column, peptide on Toyopearl Formyl 650-M; fraction quantified by RP-HPLC
Positions of bridges follow the written chain, without caps; N, C: chain ends. No end group written: not given here. *: point of attachment. NHNH2 = NN*
Kindly apply the following: fulfilled if % recovery in Flow is less than 2%, not fulfilled in every other case.

// below: answered binders
Binder	Assigned label
AEGTGDHLCGAWFRPCDADPGPEGGGS-NHNH2 (disulfide 9-16) [CS-454 (…-NHNH2)]	not fulfilled
AEGTGDFGCSWLFPCPFDPGPEGGGS-NHNH2 (disulfide 9-15) [CS-456 (…-NHNH2)]	not fulfilled
AEGTGDFHCIGVWFCLHDPGPEGGGS-NHNH2 (disulfide 9-15 (inferred)) [CS-455 (…-NHNH2)]	not fulfilled
AEGTGDHPCGSWLRPCLHDPGPEGGGS-NHNH2 (disulfide 9-16 (inferred)) [CS-453 (…-NHNH2)]	fulfilled

Exam item: Does AEGTGDFCWVFAFDHCHDPGPEGGGS-NHNH2 (disulfide 8-16) [CS-458 (…-NHNH2)] have % recovery in Flow strictly under 2%?
Marked response: fulfilled

Exam item: Another binder: AEGTGDFCWVFPFHHCFDPGPEGGGS-NHNH2 (disulfide 8-16 (inferred)) [CS-460 (…-NHNH2)]
Marked response: not fulfilled

Exam item: Next binder: AEGTGDFCWVFPFQHCADPGPEGGGS-NHNH2 (disulfide 8-16 (inferred)) [CS-459 (…-NHNH2)]
Marked response: fulfilled
